Test: Primary qHTS for inhibitors of MERS-S pseudo-typed particle cell entry (AID 1479149); further: nearly all actives have a fitted effect of over 60% in size
Settings: MERS-S pseudotyped particle entry, luciferase; series mostly up to 57.1 µM
Results filed as inconclusive are left out. Active and inactive are the calls of the source. The call rests on the fitted dose curve.
Assay endpoint: outcome

Examples with their reported outcome follow.
| Compound | Measured |
| --- | --- |
| Cc1nc2ccc(CN(C)c3ccc(C(=O)N[C@@H](CCC(=O)O)C(=O)O)s3)cc2c(=O)[nH]1 | inactive |
| CC[N+](CC)(CCNC(=O)C(=O)NCC[N+](CC)(CC)Cc1ccccc1Cl)Cc1ccccc1Cl | inactive |
| Cc1ccc(C(=O)C(C)CN2CCCCC2)cc1 (stereo not given) | inactive |
| COc1cccc2c1C(=O)c1c(O)c3c(c(O)c1C2=O)C[C@@](O)(C(=O)CO)CC3OC1CC(N2CCOC(OC)C2)C(O)C(C)O1 (stereo not given in full) | inactive |
| O=C(Oc1ccccc1C(=O)O)c1ccccc1O | inactive |
| OC[C@H]1O[C@@H](Oc2ccc(O)cc2)[C@H](O)[C@@H](O)[C@@H]1O | inactive |
| O=C(O)c1cc(N=Nc2ccc(O)c(C(=O)O)c2)ccc1O | inactive |
| COc1ccccc1OCC(O)CO (stereo not given) | inactive |
| O=C(C1CCCCC1)N1CC(=O)N2CCCc3ccccc3C2C1 (stereo not given) | inactive |

Here is the next item to consider.
The reported outcome of the compound Cc1cccc(C)c1NC(=O)CC12CCCN1CCC2 was inactive

###

Field: max response. Provide a value for each of the compounds that follow.
Test system: CRL-7250
Assay: Cytotoxic Profiling of Annotated Libraries Using Quantitative High-Throughput Screening (AID 1296008); further: on the % scale 0 is the no-effect control and ±100 the full control effect; nearly all actives have a fitted effect of over 60% in size
Details: Five cell lines viability, CellTiter-Glo ATP luminescence, 48-72 h; active compounds read low
Inconclusive results are not listed.
Answers are plain numbers, in %.

Below, 2 compounds whose answers are already recorded.
| Compound | Target entity | Assay endpoint | Measured |
| --- | --- | --- | --- |
| CCCCC/C=C\C/C=C\C/C=C\C/C=C\CCCC(=O)NCC(=O)O | CRL-7250 | max response | -2.63 |
| CCC1(c2ccccc2)C(=O)N(COC)C(=O)N(COC)C1=O | CRL-7250 | max response | -1.83 |

Respectfully, I request max response for each entry included below.
1. c1ccc(CN2CCNCC2)cc1
2. CNC(C)(C)Cc1ccccc1
3. COc1c2c(cc3c1OCO3)CCN(C)C2

Response line:
[3.96, -3, -2.93]

Please give max response for each item listed below.
1. CC(=O)NC1CCSC1=O (stereo not drawn)
2. C=CCC1([C@H](C)CCC)C(=O)NC(=O)NC1=O
3. Nc1ccccc1
4. C[C@H]1[C@@H]2Cc3ccc(O)cc3[C@@]1(C)CCN2C
5. C=C(C)[C@H]1CN[C@H](C(=O)O)[C@H]1CC(=O)O
6. C[C@]12CC[C@H]3[C@@H](CCC4=CC(=O)CC[C@@H]43)[C@@H]1CC[C@@H]2OC(=O)CCc1ccco1
7. CN(C)CCc1c[nH]c2cccc(OP(=O)(O)O)c12

Response line:
1. -4.93
2. 1.74
3. -1.03
4. -7.45
5. 1.07
6. -3
7. -37.9

// recorded max response for CCCOC(=O)c1cncn1C(C)c1ccccc1 (stereo not drawn) : -1.16
